Test system: tRNA
experimentSummary: Aminoacylation assay (tRNA charging)
Assay type: biochemical
testSettings: nsAA pAcF
attributeMeasured: kcat

# molecule, observed
data = [
    ("pAcFRS.1: pAcFRS variant A167D, SEQ ID NO: 2 (protein) MDEFEMIKRNTSEIISEEELREVLKKDEKSALIGFEPSGKIHLGHYLQIKKMIDLQNAGFDIIILLADLHAYLNQKGELDEIRKIGDYNKKVFEAMGLKAKYVYGSEFQLDKDYTLNVYRLALKTTLKRARRSMELIAREDENPKVAEVIYPIMQVNGCHYRGVDVDVGGMEQRKIHMLARELLPKKVVCIHNPVLTGLDGEGKMSSSKGNFIAVDDSPEEIRAKIKKAYCPAGVVEGNPIMEIAKYFLEYPLTIKRPEKFGGDLTVNSYEELESLFKNKELHPMRLKNAVAEELIKILEPIRKRL", "1.21 ± 0.24 ×10^−3 s^−1"),
]

Working through the 2 molecules below one at a time, give kcat for each.
1. pAcFRS.2.t1: pAcFRS variant L65V, A167D, R257G, SEQ ID NO: 8 (protein) MDEFEMIKRNTSEIISEEELREVLKKDEKSALIGFEPSGKIHLGHYLQIKKMIDLQNAGFDIIIVLADLHAYLNQKGELDEIRKIGDYNKKVFEAMGLKAKYVYGSEFQLDKDYTLNVYRLALKTTLKRARRSMELIAREDENPKVAEVIYPIMQVNGCHYRGVDVDVGGMEQRKIHMLARELLPKKVVCIHNPVLTGLDGEGKMSSSKGNFIAVDDSPEEIRAKIKKAYCPAGVVEGNPIMEIAKYFLEYPLTIKGPEKFGGDLTVNSYEELESLFKNKELHPMRLKNAVAEELIKILEPIRKRL
2. pAcFRS.1.t1: pAcFRS variant A167D, R257G, SEQ ID NO: 5 (protein) MDEFEMIKRNTSEIISEEELREVLKKDEKSALIGFEPSGKIHLGHYLQIKKMIDLQNAGFDIIILLADLHAYLNQKGELDEIRKIGDYNKKVFEAMGLKAKYVYGSEFQLDKDYTLNVYRLALKTTLKRARRSMELIAREDENPKVAEVIYPIMQVNGCHYRGVDVDVGGMEQRKIHMLARELLPKKVVCIHNPVLTGLDGEGKMSSSKGNFIAVDDSPEEIRAKIKKAYCPAGVVEGNPIMEIAKYFLEYPLTIKGPEKFGGDLTVNSYEELESLFKNKELHPMRLKNAVAEELIKILEPIRKRL

result:
["0.54 ± 0.15 ×10^−3 s^−1", "1.12 ± 0.14 ×10^−3 s^−1"]
